meta.source: the supplement of paper PMC6757056

B1: library; a variant is named by its letters at N, in order (parent)
chain: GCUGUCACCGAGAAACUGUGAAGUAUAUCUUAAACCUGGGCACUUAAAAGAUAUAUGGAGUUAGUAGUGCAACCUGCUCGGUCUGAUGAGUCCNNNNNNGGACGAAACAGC

- Variants of: B1
- protocol text: normalized RNA/DNA level with ligand (relative to sTRSVctl = 100) (log10 (% of sTRSVctl)); HEK293T; ligand: cyclic di-GMP (c-di-GMP-II aptamer); ligand concentration (+) RNA-Seq: 1 mM; higher = less ribozyme self-cleavage, higher mRNA level
- condition details: reporter: mCherry (pCS4076), ligand present: yes
For each entry below, report its normalized RNA/DNA level with ligand (log10) value.
Note: the reply should be a number with no unit written.

Ask | In one line, give reported normalized RNA/DNA level with ligand (log10) of the entry UCGGAC .
Reply | 1.8

Ask | Note normalized RNA/DNA level with ligand (log10) for the variant shown: AUAACU
Reply | 1.82

Ask | Input UCGACU , output reported normalized RNA/DNA level with ligand (log10).
Reply | 1.82

Ask | Write down normalized RNA/DNA level with ligand (log10) measured for item CCUUAC
Reply | 1.83

Ask | # return recorded normalized RNA/DNA level with ligand (log10) for input CUUGGG
Reply | 1.88

Ask | Return normalized RNA/DNA level with ligand (log10) for the following variant: GUGCCU
Reply | 1.87

Ask | Give the measured normalized RNA/DNA level with ligand (log10) for AAGCUC
Reply | 1.89

Ask | Look up and report measured normalized RNA/DNA level with ligand (log10) for this entry: AUUCUC
Reply | 1.89

Ask | Given the variant UCCAGA , write its reported normalized RNA/DNA level with ligand (log10).
Reply | 1.82

Ask | Report normalized RNA/DNA level with ligand (log10), nothing else, for this variant: UGGAGG
Reply | 1.84

Ask | Supply recorded normalized RNA/DNA level with ligand (log10) for CUAACG here.
Reply | 1.85

Ask | // Input: AAUUUA . Output its normalized RNA/DNA level with ligand (log10) only.
Reply | 1.81

Ask | // Input: GGCCAA . Output its normalized RNA/DNA level with ligand (log10) only.
Reply | 1.74

Ask | Please give measured normalized RNA/DNA level with ligand (log10) of the following entry: GGUGGC
Reply | 1.83

Ask | Identify normalized RNA/DNA level with ligand (log10) associated with the variant CUAAAC
Reply | 1.79

Ask | Read off the recorded normalized RNA/DNA level with ligand (log10) for CUACUG
Reply | 1.83

Ask | Identify normalized RNA/DNA level with ligand (log10) associated with the variant UGGAGC
Reply | 1.81

Ask | Return normalized RNA/DNA level with ligand (log10) for the following variant: GUAGUA
Reply | 1.74

Ask | Consider the variant CAUCGG and give its recorded normalized RNA/DNA level with ligand (log10).
Reply | 1.84

Ask | Write down normalized RNA/DNA level with ligand (log10) measured for item CCUAUC
Reply | 1.79

Ask | Please supply the value of reported normalized RNA/DNA level with ligand (log10) for the item UCGUUU
Reply | 1.85

Ask | Return reported normalized RNA/DNA level with ligand (log10). Input variant: CGGUUC
Reply | 1.75
